biological target: Tau40P301L protein (Homo sapiens, UniProt P10636, P618L); construct: His; made in house; host or cells: E. coli BL21; assay: biochemical; settings: IC50 (μM), Tau40 assay
Sequence (P10636 1-441 isoform P10636-8 P301L): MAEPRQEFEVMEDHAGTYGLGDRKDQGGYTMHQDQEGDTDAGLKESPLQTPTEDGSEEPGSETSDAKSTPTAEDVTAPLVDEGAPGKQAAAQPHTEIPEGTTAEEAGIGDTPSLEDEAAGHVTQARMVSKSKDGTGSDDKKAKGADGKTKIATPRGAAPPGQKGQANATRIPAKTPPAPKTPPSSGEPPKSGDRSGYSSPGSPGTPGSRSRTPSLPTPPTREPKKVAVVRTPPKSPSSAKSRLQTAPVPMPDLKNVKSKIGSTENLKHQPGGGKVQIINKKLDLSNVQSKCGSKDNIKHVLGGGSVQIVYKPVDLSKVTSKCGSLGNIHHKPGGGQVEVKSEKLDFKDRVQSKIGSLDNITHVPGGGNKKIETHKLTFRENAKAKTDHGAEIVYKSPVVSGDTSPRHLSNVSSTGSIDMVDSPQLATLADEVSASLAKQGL
Peptide text beside a SMILES is read from it.
READOUT_LABEL: IC50 (µM)

COMPOUND	TARGET	READOUT_LABEL	RECORDED_VALUE
CC[C@H](C)[C@H](NC(=O)[C@H](CCCNC(=N)N)NC(=O)[C@@H](NC(=O)[C@H](Cc1c[nH]c2ccccc12)NC(=O)[C@@H](N)Cc1c[nH]c2ccccc12)[C@@H](C)CC)C(=O)N[C@@H](CCCNC(=N)N)C(=O)N[C@@H](Cc1ccc(O)cc1)C(=O)N[C@@H](Cc1c[nH]c2ccccc12)C(=O)N[C@@H](CC(C)C)C(=O)O [compound 65] (H-WWIRIRYWL-OH)	Tau40P301L protein (Homo sapiens, UniProt P10636, P618L)	IC50	1.31
CC[C@H](C)[C@H](NC(=O)[C@H](CCCNC(=N)N)NC(=O)[C@@H](N)Cc1c[nH]c2ccccc12)C(=O)N[C@@H](Cc1c[nH]c2ccccc12)C(=O)N[C@@H](C)C(=O)N[C@@H](CCCNC(=N)N)C(=O)N[C@@H](Cc1ccc(O)cc1)C(=O)N[C@@H](Cc1c[nH]c2ccccc12)C(=O)O [compound 163] (H-WRIWARYW-OH)	Tau40P301L protein (Homo sapiens, UniProt P10636, P618L)	IC50	2.95
CC[C@H](C)[C@H](NC(=O)[C@@H](N)CCCNC(=N)N)C(=O)N[C@@H](CCCNC(=N)N)C(=O)N[C@@H](CC(C)C)C(=O)N[C@@H](Cc1c[nH]c2ccccc12)C(=O)N[C@@H](Cc1ccc(O)cc1)C(=O)N[C@@H](Cc1c[nH]c2ccccc12)C(=O)O [compound 60] (H-RIRLWYW-OH)	Tau40P301L protein (Homo sapiens, UniProt P10636, P618L)	IC50	8.01
CC[C@H](C)[C@H](NC(=O)[C@H](CCCNC(=N)N)NC(=O)[C@@H](NC(=O)[C@@H](N)Cc1c[nH]c2ccccc12)[C@@H](C)CC)C(=O)N[C@@H](CCCNC(=N)N)C(=O)N[C@@H](Cc1ccc(O)cc1)C(=O)N[C@@H](Cc1c[nH]c2ccccc12)C(=O)O [compound 152] (H-WIRIRYW-OH)	Tau40P301L protein (Homo sapiens, UniProt P10636, P618L)	IC50	2.6

Attribution: patent US20230137562A1
